Experiment: Pharmacokinetics, plasma and total colon tissue distribution in rats
Assay type: in vivo, male Wistar rats
Settings: male, Wistar, plasma; Rat, intravenous 0.25 mg/kg
Protocol: A study was conducted by Sai Life Sciences (Hinjewadi, Pune, India) to investigate the pharmacokinetics, as well as plasma and total colon tissue distribution of the compound of Example 77 in male Wistar rats following a single intravenous or oral administration. 30 male Wistar rats were divided into two groups: Group I (p.o.: 5 mg/kg; 27 rats) and Group II (i.v.: 0.25 mg/kg; 3 rats). […]
REPORTED ENDPOINT: C0 (ng/mL)
Quick reminder: number only, in ng/mL, skip the unit.

INPUT: // C0 lookup, key: C#Cc1cc(Nc2nccc(Oc3ccc(NC(=O)Nc4cc(C(C)(C)C)nn4-c4ccc(OC)cc4)c4ccccc34)n2)cc(C(=O)NCCN2CCOCC2)c1 [Example 77]
OUTPUT: 4030
